Assay: TOR pathway LAP4-GFP level changes – S. cerevisiae, multiplex flow cytometry, primary screen (AID 1873)
Conditions: S. cerevisiae LAP4-GFP expression, 3 h, at 10 µM, stronger effect = higher value
Results filed as inconclusive are left out. Calls of active or inactive are those of the source.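 How the source made its calls: active means GFP signal, as percent of the solvent control, above the screen mean plus 3 SD, about 149; inconclusive means no reading because the compound's own fluorescence upset strain identification; inactive means the rest.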
Readings of GFP response vs DMSO for the listed molecules
metric name: GFP response vs DMSO

>  <molecule>
O=C(OCCNC(=O)c1ccc2ccccc2n1)c1ccc(F)cc1

>  <result>
87.4% (inactive)

$$$$
>  <molecule>
CC(=O)C1=C(O)C(=O)N(CC(=O)O)C1c1ccccc1Cl (centres undefined)

>  <result>
82.5% (inactive)

$$$$
>  <molecule>
COc1ccc2cc([C@H](C)C(=O)O)ccc2c1

>  <result>
77.7% (inactive)

$$$$
>  <molecule>
CC1CCN(CCOCCOc2ccccc2Br)CC1

>  <result>
86.8% (inactive)

$$$$
>  <molecule>
CCOc1cc2c3c(c1)C(C)=CC(C)(C)N3C(=O)C2=O

>  <result>
108% (inactive)

$$$$
>  <molecule>
C[C@]12CCC(=O)C=C1[C@H](O)C[C@@H]1[C@@H]2[C@@H](O)C[C@@]2(C)[C@H]1CC[C@]2(O)C(=O)CO

>  <result>
102% (inactive)

$$$$
>  <molecule>
O=C(CCc1c[nH]c2ccccc12)NCc1ccco1

>  <result>
109% (inactive)

$$$$
>  <molecule>
CCn1c(/C=C/c2ccccc2)nc2ccccc2c1=O

>  <result>
122% (inactive)

$$$$
>  <molecule>
NS(=O)(=O)c1cc2c(cc1Cl)NC(C(Cl)Cl)NS2(=O)=O (centres undefined)

>  <result>
108% (inactive)

$$$$
>  <molecule>
COc1cc(COc2ccc3c(C)c(Cc4ccccc4)c(=O)oc3c2)cc(OC)c1OC

>  <result>
94% (inactive)

$$$$
>  <molecule>
COc1cc(C(=O)OCCn2c(=O)c3c(ncn3CCN(C)C)n(C)c2=O)cc(OC)c1OC

>  <result>
112% (inactive)

$$$$
>  <molecule>
Cc1nc2ccccn2c(=O)c1CCN1CCC(C(=O)c2ccc(F)cc2)CC1

>  <result>
101% (inactive)

$$$$
>  <molecule>
COc1cc(CO)ccc1OCc1nnnn1-c1ccc(C)cc1

>  <result>
95.9% (inactive)

$$$$
>  <molecule>
NNC(=O)c1cc(O)c(O)c(O)c1

>  <result>
96% (inactive)

$$$$

* * *

Experiment: calorie-restriction mimetic ROS inhibitors, yeast – validation compound set, pilot screen (AID 2706);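 further: yeast exposed to compound for one week at 30 degrees C before staining; 100% = mean of all compound wells on the same plate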
Details: S. cerevisiae aging, superoxide DHE fluorescence; at 10 µM; stronger effect = lower value
Reported superoxide response (% of plate) values for the following molecules.

>  <molecule>
O=C(/C=C/c1ccc2c(c1)OCCCO2)c1ccc2ccccc2c1O

>  <superoxide response (% of plate) (%)>
102

$$$$
>  <molecule>
O=C(O)C1CSC(c2ccc3c(c2)OCO3)N1 (configuration not stated)

>  <superoxide response (% of plate) (%)>
86.1

$$$$
>  <molecule>
OC(CCN1CCCC1)(c1ccccc1)C1CCCCC1 (configuration not stated)

>  <superoxide response (% of plate) (%)>
93.8

$$$$
>  <molecule>
CCOC(=O)c1cc2c(nc1N)CC(C)(CC)OC2 (configuration not stated)

>  <superoxide response (% of plate) (%)>
97.3

$$$$
>  <molecule>
COc1ccc(C2C(C(=O)c3ccco3)=C(O)C(=O)N2CC2CCCO2)cc1 (configuration not stated)

>  <superoxide response (% of plate) (%)>
105

$$$$
>  <molecule>
O=C(O)C1CSC(c2ccco2)N1 (configuration not stated)

>  <superoxide response (% of plate) (%)>
100

$$$$
>  <molecule>
Cc1cccc(OCC(=O)Nc2ccc(C(=O)NCC(C)C)cc2)c1

>  <superoxide response (% of plate) (%)>
97.4

$$$$
>  <molecule>
O=Cc1ccccc1Oc1ccccc1

>  <superoxide response (% of plate) (%)>
107

$$$$
>  <molecule>
CCOC(=O)c1oc2cc(O)cc(C)c2c(=O)c1-c1cscn1

>  <superoxide response (% of plate) (%)>
101

$$$$
>  <molecule>
CCCC(CCC)C(=O)OC1C[C@H]2CC[C@@H](C1)[N+]2(C)C (some centres not stated)

>  <superoxide response (% of plate) (%)>
108

$$$$
>  <molecule>
CC(C)c1ccc(OCc2ccc(C(=O)O)o2)cc1

>  <superoxide response (% of plate) (%)>
107

$$$$
>  <molecule>
Cc1ccc(C(=O)Nc2ccccc2C(=O)NC(C(=O)O)C(C)C)cc1 (configuration not stated)

>  <superoxide response (% of plate) (%)>
116

$$$$
>  <molecule>
CCCCN(CCCC)CCCOC(=O)c1ccc(N)cc1

>  <superoxide response (% of plate) (%)>
92.8

$$$$
>  <molecule>
Cc1ccccc1C(=O)Oc1ccc(Sc2ccc(O)cc2)cc1

>  <superoxide response (% of plate) (%)>
94.1

$$$$
>  <molecule>
CCOC(=O)N1CCN(Cc2nc(Cc3cccc(F)c3)no2)CC1

>  <superoxide response (% of plate) (%)>
103

$$$$
>  <molecule>
COc1ccc2oc(=O)c(C(=O)Nc3ccccc3-c3ccccc3)cc2c1

>  <superoxide response (% of plate) (%)>
94.6

$$$$
>  <molecule>
O=c1cnn([C@@H]2O[C@H](CO)[C@@H](O)[C@H]2O)c(=O)[nH]1

>  <superoxide response (% of plate) (%)>
124

$$$$
>  <molecule>
O=C(/C=C/c1ccccc1)NCC1(c2ccccc2)CCOCC1

>  <superoxide response (% of plate) (%)>
99.2

$$$$
>  <molecule>
CC1(c2ccccc2)CC(C)(C)N2C(=O)C(=O)c3cccc1c32 (configuration not stated)

>  <superoxide response (% of plate) (%)>
109

$$$$
>  <molecule>
Cc1cc(O)c(C(C)C)cc1C1(c2cc(C(C)C)c(O)cc2C)OC(=O)c2ccccc21

>  <superoxide response (% of plate) (%)>
88.7

$$$$
>  <molecule>
COc1ccc(-c2[nH]ncc2CN(C)C(C)c2ccon2)c(OC)c1 (configuration not stated)

>  <superoxide response (% of plate) (%)>
99.7

$$$$
>  <molecule>
COc1cccc(CC2CC(=O)N(c3ccc4c(C)cc(=O)oc4c3)C2=O)c1 (configuration not stated)

>  <superoxide response (% of plate) (%)>
93.9

$$$$
>  <molecule>
O=C(NCCO)c1ccc(Cl)c(Cl)c1

>  <superoxide response (% of plate) (%)>
105

$$$$
>  <molecule>
CCc1cc2c(=O)c(-c3nc(C)cs3)coc2cc1OC(C)C(=O)NCCO (configuration not stated)

>  <superoxide response (% of plate) (%)>
95.6

$$$$
>  <molecule>
COc1ccc(C(=O)Nc2cccnc2)cc1C(=O)Nc1cccnc1

>  <superoxide response (% of plate) (%)>
104

$$$$
>  <molecule>
Cc1cc(O)c(C(=O)Cc2csc(C)n2)c(O)c1

>  <superoxide response (% of plate) (%)>
104

$$$$
>  <molecule>
CCC(=O)O[C@]1(C(=O)CCl)[C@@H](C)C[C@H]2[C@@H]3CCC4=CC(=O)C=C[C@]4(C)[C@@]3(F)[C@@H](O)C[C@@]21C

>  <superoxide response (% of plate) (%)>
120

$$$$
>  <molecule>
COc1ccc(-c2nc(NC(C)=O)sc2-c2ccc(OC)cc2)cc1

>  <superoxide response (% of plate) (%)>
104

$$$$
>  <molecule>
O=C(O)c1cnccn1

>  <superoxide response (% of plate) (%)>
102

$$$$
>  <molecule>
COc1ccc(CN(CCC(c2ccccc2)c2ccc(OC(C)C)cc2)C(=O)CCl)cc1OC (configuration not stated)

>  <superoxide response (% of plate) (%)>
94.5

$$$$
>  <molecule>
CC(C)C12CN3CC(C(C)C)(CN(C1)C3c1ccccc1)C2O (configuration not stated)

>  <superoxide response (% of plate) (%)>
99.3

$$$$
>  <molecule>
COC(=O)c1ccccc1NC(=O)NCc1ccccc1

>  <superoxide response (% of plate) (%)>
99

$$$$
>  <molecule>
Cc1ccc(NC(=O)CSc2nc(O)c(Cc3ccccc3)c(=O)n2-c2ccccc2)cc1

>  <superoxide response (% of plate) (%)>
95.4

$$$$
>  <molecule>
COc1ccc2c(c1)c(=O)oc1cc3occ(C(C)(C)C)c3cc12

>  <superoxide response (% of plate) (%)>
92.5

$$$$
>  <molecule>
CN(C)c1ccc(Nc2c3c4c(cccc4n(C)c2=O)C(=O)c2ccccc2-3)cc1

>  <superoxide response (% of plate) (%)>
71

$$$$
>  <molecule>
Cc1ccccc1-c1nn(-c2ccc(F)cc2F)cc1CNCCN(C)C

>  <superoxide response (% of plate) (%)>
90.2

$$$$
>  <molecule>
Cc1ccc(Cl)c(Nc2ccccc2C(=O)O)c1Cl

>  <superoxide response (% of plate) (%)>
95.2

$$$$
